experimental-target: T1, Placenta Growth Factor (PlGF), human (human, UniProt P49763 21-149)
T1 chain: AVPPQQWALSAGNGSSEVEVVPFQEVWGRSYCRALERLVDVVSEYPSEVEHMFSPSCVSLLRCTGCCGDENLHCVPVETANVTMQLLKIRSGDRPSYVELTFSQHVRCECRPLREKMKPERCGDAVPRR
protocol: ELISA
Form field: EC50 (one value per entry).
Supply the numeric figure in nM, leaving out any unit text.

# binder, EC50 / nM
measured = [
    ("HC 4/SLC 15 (antibody) chain 1: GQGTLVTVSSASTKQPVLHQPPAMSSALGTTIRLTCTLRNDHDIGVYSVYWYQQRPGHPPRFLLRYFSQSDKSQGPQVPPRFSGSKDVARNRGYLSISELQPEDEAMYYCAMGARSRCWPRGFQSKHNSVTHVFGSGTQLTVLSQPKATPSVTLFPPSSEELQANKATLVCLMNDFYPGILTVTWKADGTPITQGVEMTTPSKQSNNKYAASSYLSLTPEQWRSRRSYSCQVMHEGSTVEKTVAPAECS chain 2: MSWAPVLLMLFVYCTGCGPQPVLHQPPAMSSALGTTIRLTCTLRNDHDIGVYSVYWYQQRPGHPPRFLLRYFSQSDKSQGPQVPPRFSGSKDVARNRGYLSISVTHVFGSGTQLTVLSQPKATPSVTGGGGSQVQLVQ", 0.057),
]

Q: Give the value of EC50 reported for the following: HC 8/SLC 2 (antibody) chain 1: GQGTLVTVSSASTKGPSVQPVLHQPPAMSSALGTTIRLTCTLRNDHDIGVYSVYWYQQRPGHPPRFLLRYFSQSDKSQGPQVPPRFSGSKDVARNRGYLSISELQPEDEAMYYCAMGARSRCWPRGFQSKHNSVTHVFGSGTQLTVLSQPKATPSVTLFPPSSEELQANKATLVCLMNDFYPGILTVTWKADGTPITQGVEMTTPSKQSNNKYAASSYLSLTPEQWRSRRSYSCQVMHEGSTVEKTVAPAECS chain 2: MSWAPVLLMLFVYCTGCGPQPVLHQPPAMSSALGTTIRLTCTLRNDHDIGVYSVYWYQQRPGHPPRFLLRYFSQSDKSQGPQVPPRFSGSKDVARNRGYLSISVTHVFGSGTQLTVLSQQVQLVQ
Result: 0.227
